compounds and their reported Cytotoxic CTL response, % vs WT1+ leukemia
# Test system: WT1+ leukemia
# protocolSummary: Cr51 release assay, cytotoxic CTL response vs WT1+ leukemia expressing restricting HLA allele
# Format: cell-based, human
# cond: HLA allele A0201; 50:1 E:T
Where a SMILES comes first, the peptide text is derived from it.
measurementName: Cytotoxic CTL response, % vs WT1+ leukemia (%)

compound	measurement
CSCC[C@H](NC(=O)[C@@H](N)CC(N)=O)C(=O)N[C@@H](Cc1c[nH]cn1)C(=O)N[C@@H](CCC(N)=O)C(=O)N[C@@H](CCCNC(=N)N)C(=O)N[C@@H](CC(N)=O)C(=O)N[C@@H](Cc1c[nH]cn1)C(=O)N[C@H](C(=O)N[C@@H](CCCCN)C(=O)N[C@@H](CC(C)C)C(=O)O)[C@@H](C)O [SEQ ID NO: 183] (H-NMHQRNHTKL-OH; N-terminus and C-terminus assumed)	0
CC(C)C[C@H](NC(=O)[C@H](CS)NC(=O)CNC(=O)[C@@H]1CCCN1)C(=O)N[C@@H](CCC(N)=O)C(=O)N[C@@H](CCC(N)=O)C(=O)N1CCC[C@H]1C(=O)N[C@@H](CCC(=O)O)C(=O)N[C@@H](CCC(N)=O)C(=O)O [SEQ ID NO: 148] (H-PGCLQQPEQ-OH; N-terminus and C-terminus assumed)	19
CC(C)C[C@H](NC(=O)[C@H](C)NC(=O)[C@H](CC(N)=O)NC(=O)[C@H](CC(C)C)NC(=O)[C@H](CC(=O)O)NC(=O)[C@@H](N)CCCNC(=N)N)C(=O)N[C@@H](CC(C)C)C(=O)N1CCC[C@H]1C(=O)N[C@@H](C)C(=O)N[C@H](C(=O)O)C(C)C [SEQ ID NO: 152] (H-RDLNALLPAV-OH; N-terminus and C-terminus assumed)	9

---

molecules and their reported Cytotoxic CTL response, % vs WT1- autologous APC
# Test system: WT1- autologous APC
# protocolSummary: Cr51 release assay, cytotoxic CTL response vs unmodified autologous APC
# Format: cell-based, human
# cond: HLA allele A0201; 50:1 E:T
Where a SMILES comes first, the peptide text is derived from it.
measurementName: Cytotoxic CTL response, % vs WT1- autologous APC

molecule	measurement
CC(C)C[C@H](NC(=O)[C@H](C)NC(=O)[C@H](CC(N)=O)NC(=O)[C@H](CC(C)C)NC(=O)[C@H](CC(=O)O)NC(=O)[C@@H](N)CCCNC(=N)N)C(=O)N[C@@H](CC(C)C)C(=O)N1CCC[C@H]1C(=O)N[C@@H](C)C(=O)N[C@H](C(=O)O)C(C)C [SEQ ID NO: 152] (H-RDLNALLPAV-OH; N-terminus and C-terminus assumed)	2%
CC[C@H](C)[C@H](NC(=O)[C@H](C)N)C(=O)N[C@@H](CC(C)C)C(=O)N[C@@H](CC(=O)O)C(=O)N[C@@H](Cc1ccccc1)C(=O)N[C@@H](CC(C)C)C(=O)N[C@@H](CC(C)C)C(=O)N[C@@H](CC(C)C)C(=O)N[C@@H](CCC(N)=O)C(=O)O [SEQ ID NO: 147] (H-AILDFLLLQ-OH; N-terminus and C-terminus assumed)	0%
C[C@H](NC(=O)[C@@H]1CCCN1)C(=O)N1CCC[C@H]1C(=O)N1CCC[C@H]1C(=O)N1CCC[C@H]1C(=O)N1CCC[C@H]1C(=O)N1CCC[C@H]1C(=O)N1CCC[C@H]1C(=O)N1CCC[C@H]1C(=O)O [SEQ ID NO: 158] (H-PAPPPPPPP-OH; N-terminus and C-terminus assumed)	2%
CC(C)C[C@H](NC(=O)[C@H](CS)NC(=O)CNC(=O)[C@@H]1CCCN1)C(=O)N[C@@H](CCC(N)=O)C(=O)N[C@@H](CCC(N)=O)C(=O)N1CCC[C@H]1C(=O)N[C@@H](CCC(=O)O)C(=O)N[C@@H](CCC(N)=O)C(=O)O [SEQ ID NO: 148] (H-PGCLQQPEQ-OH; N-terminus and C-terminus assumed)	6%
C[C@@H](O)[C@H](N)C(=O)N[C@@H](Cc1c[nH]cn1)C(=O)N[C@@H](CO)C(=O)N1CCC[C@H]1C(=O)N[C@H](C(=O)N[C@@H](Cc1c[nH]cn1)C(=O)N1CCC[C@H]1C(=O)N1CCC[C@H]1C(=O)N[C@@H](CCCNC(=N)N)C(=O)O)[C@@H](C)O [SEQ ID NO: 146] (H-THSPTHPPR-OH; N-terminus and C-terminus assumed)	2%
CC(C)C[C@H](NC(=O)[C@H](C)NC(=O)[C@H](CS)NC(=O)CNC(=O)CN)C(=O)N1CCC[C@H]1C(=O)N[C@H](C(=O)N[C@@H](CO)C(=O)NCC(=O)N[C@@H](C)C(=O)O)C(C)C [SEQ ID NO: 153] (H-GGCALPVSGA-OH; N-terminus and C-terminus assumed)	8%
